- TEST SYSTEM: dhPPase (Desulfitobacterium hafniense CBS-PPase) (Desulfitobacterium hafniense, UniProt B8FP42, E126A)
- Construct: full-length, tag-less, recombinant in E. coli BL21 (pET-42b); homotetramer
- Sequence (B8FP42 entry or part of it E126A): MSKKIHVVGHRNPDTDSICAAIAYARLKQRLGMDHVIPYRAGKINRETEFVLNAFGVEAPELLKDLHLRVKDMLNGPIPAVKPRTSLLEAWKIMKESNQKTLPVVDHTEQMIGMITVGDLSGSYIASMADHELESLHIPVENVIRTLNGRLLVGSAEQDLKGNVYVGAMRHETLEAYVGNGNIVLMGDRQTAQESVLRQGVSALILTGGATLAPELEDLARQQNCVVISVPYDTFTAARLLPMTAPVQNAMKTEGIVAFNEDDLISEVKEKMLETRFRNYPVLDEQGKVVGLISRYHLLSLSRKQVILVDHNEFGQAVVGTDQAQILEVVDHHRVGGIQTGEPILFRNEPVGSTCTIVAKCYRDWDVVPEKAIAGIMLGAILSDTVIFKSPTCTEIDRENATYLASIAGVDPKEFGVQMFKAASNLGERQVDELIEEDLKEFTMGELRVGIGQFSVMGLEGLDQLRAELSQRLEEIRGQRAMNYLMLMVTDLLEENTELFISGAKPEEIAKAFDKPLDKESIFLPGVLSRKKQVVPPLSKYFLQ
- PROCEDURE SUMMARY: isothermal titration calorimetry, single-binding-site model
- RUN CONDITIONS: read-out: KN
MEASUREMENT LABEL: Kd
Please answer using the number first and the unit second.

Challenge: Would you kindly share the measured Kd for `Nc1ncnc2c1ncn2[C@@H]1O[C@H](COP(=O)(O)OP(=O)(O)O)[C@@H](O)[C@H]1O` ?
Response given: 600 nM
